Where these numbers come from: ChEMBL document CHEMBL1148741

experiment: Ratio of drug level in brain to plasma in rat at 10 mg/kg, po; type: ADME, organism-based; parameters: dose 10 mg/kg, route oral
assay.readout: Kp
Quick one: just the number, no unit, thanks!

So what's the measured Kp for this one? Cc1ccc(NC(=O)C(C)C)cc1C1CCN(Cc2ccc(Oc3ccc(F)c(F)c3)cc2)CC1 2.3

###

biological target: D(2) dopamine receptor (Homo sapiens, UniProt P14416); assay: Displacement of [3H]spiperone from human recombinant dopamine D2 receptor
Sequence (P14416 whole entry): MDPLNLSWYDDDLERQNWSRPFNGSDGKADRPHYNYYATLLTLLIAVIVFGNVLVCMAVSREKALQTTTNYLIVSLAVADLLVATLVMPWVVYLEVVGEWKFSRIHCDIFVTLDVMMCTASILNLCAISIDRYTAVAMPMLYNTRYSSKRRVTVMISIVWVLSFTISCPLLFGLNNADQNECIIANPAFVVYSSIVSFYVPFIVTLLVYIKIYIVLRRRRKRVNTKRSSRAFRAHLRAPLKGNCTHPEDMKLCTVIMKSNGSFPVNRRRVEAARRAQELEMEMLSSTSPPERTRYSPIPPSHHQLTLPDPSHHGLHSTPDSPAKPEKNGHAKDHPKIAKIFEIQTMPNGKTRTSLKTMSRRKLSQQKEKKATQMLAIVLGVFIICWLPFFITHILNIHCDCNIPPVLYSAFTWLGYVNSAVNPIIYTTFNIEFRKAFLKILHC
assay.readout: Ki (nM)
Number in nM, nothing else.

I'd like to know its Ki. The compound in question is O=C(Cc1ccccc1)Nc1cccc(C2CCN(CCCC(=O)c3ccc(Cl)cc3)CC2)c1 780

What does the data say about its Ki? Entry: CC(=O)Nc1cccc(C2CCN(CCCC(=O)c3ccc(Cl)cc3)CC2)c1 1400

###

assay: Drug level in brain at 10 mg/kg, po after 4 hrs; format: ADME, organism-based; design: dose 10 mg/kg, route oral; details: rat, read-out: Drug uptake
assay.readout: concentration at 4 h (ng/g)
Hi! Could you send only the number? It should be in ng/g, unit omitted.

Item Cc1ccc(NC(=O)C(C)C)cc1C1CCN(Cc2ccc(Oc3ccc(F)c(F)c3)cc2)CC1 has what recorded concentration at 4 h? 184

###

# key: entry, value: Ki
biological target: Alpha-1A adrenergic receptor (Homo sapiens); test: Displacement of [125I]HEAT from human recombinant adrenergic alpha-1A receptor
Sequence (P35348 whole entry): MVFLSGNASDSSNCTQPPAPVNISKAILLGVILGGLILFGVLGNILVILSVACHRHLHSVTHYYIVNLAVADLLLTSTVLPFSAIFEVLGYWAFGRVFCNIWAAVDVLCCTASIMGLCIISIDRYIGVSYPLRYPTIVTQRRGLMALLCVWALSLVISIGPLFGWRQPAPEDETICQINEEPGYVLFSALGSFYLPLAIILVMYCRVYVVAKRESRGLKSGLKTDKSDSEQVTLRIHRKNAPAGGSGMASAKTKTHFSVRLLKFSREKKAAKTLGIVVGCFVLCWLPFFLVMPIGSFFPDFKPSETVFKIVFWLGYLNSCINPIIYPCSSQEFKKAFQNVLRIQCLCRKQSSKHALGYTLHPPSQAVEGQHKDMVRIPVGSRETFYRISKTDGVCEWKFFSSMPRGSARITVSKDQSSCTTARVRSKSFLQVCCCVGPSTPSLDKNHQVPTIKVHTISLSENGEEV
Give the number; nM is assumed, so skip it.

For Cc1ccc(C2CCN(Cc3ccc(Oc4ccc(F)c(F)c4)cc3)CC2)cc1NC(=O)C(C)C , what is its reported Ki? 1010

Could you share which Ki value was measured for CC(C)C(=O)Nc1cccc(C2CCN(Cc3ccc(Oc4ccc(Cl)c(Cl)c4)cc3)CC2)c1 ? 34000

Any idea what Ki was measured for COCC1=C(C(=O)OC)[C@H](c2ccc(F)c(F)c2)N(C(=O)NCCCN2CCC(c3cccc(NC(C)=O)c3)CC2)C(=O)N1 ? 40

###

assay: Volume of distribution at steady state in rat; format: ADME, organism-based; conditions: in vivo, read-out: Vss
assay.readout: Vd (L/kg)
Record the value in L/kg, omitting the unit from your answer.

Which Vd is reported for this compound? Cc1ccc(NC(=O)C(C)C)cc1C1CCN(Cc2ccc(Oc3ccc(F)c(F)c3)cc2)CC1 29

###

test: Half life in rat at 2 mg/kg, po and 1 mg/kg iv; format: ADME, organism-based; conditions: in vivo
assay.readout: half-life (h)
Give the number; h is assumed, so skip it.

Please report the recorded half-life for Cc1ccc(NC(=O)C(C)C)cc1C1CCN(Cc2ccc(Oc3ccc(F)c(F)c3)cc2)CC1 . 5.2

###

assay: Bioavailability in rat at 2 mg/kg, po and 1 mg/kg iv; assay type: ADME, organism-based; conditions: in vivo
assay.readout: bioavailability (%)
Write the number in % without appending the unit.

# lookup: bioavailability of Cc1ccc(NC(=O)C(C)C)cc1C1CCN(Cc2ccc(Oc3ccc(F)c(F)c3)cc2)CC1 59

###

molecular target: Melanin-concentrating hormone receptor 1 (Rattus norvegicus, UniProt P97639); test: Antagonist activity at rat MCH1 receptor expressed in HEK293 cells by FLIPR calcium mobility assay
Sequence (P97639 whole entry): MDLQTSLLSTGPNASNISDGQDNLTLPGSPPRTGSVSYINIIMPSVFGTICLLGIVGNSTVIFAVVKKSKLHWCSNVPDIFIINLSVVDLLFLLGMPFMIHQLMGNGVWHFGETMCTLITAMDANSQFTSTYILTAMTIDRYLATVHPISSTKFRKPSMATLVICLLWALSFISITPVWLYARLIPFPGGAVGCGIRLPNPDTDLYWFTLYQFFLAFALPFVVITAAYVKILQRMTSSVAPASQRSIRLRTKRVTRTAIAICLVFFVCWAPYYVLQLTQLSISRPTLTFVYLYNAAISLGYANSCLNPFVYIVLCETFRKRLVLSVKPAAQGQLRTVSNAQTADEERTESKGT
pIC50: −log10 of the molar value.
# binarize pIC50: threshold 6 inclusive, high side Criterion met, low side Criterion not met

In [3]: df
Out[3]:
                                   compound     classification
0  CC(C)C(=O)Nc1cccc(C2CCN(Cc3cccc(Oc4ccc(Cl)c(Cl)c4)c3)CC2)c1  Criterion not met
1  CC(C)C(=O)Nc1cccc(C2CCN(Cc3ccc(Oc4ccccc4)cc3)CC2)c1      Criterion met

Hi, just wondering whether CC(C)C(=O)Nc1cccc(C2CCN(CCCC(=O)c3ccc(Cl)cc3)CC2)c1 shows pIC50 of 6 or higher. Criterion met

Assess whether reported pIC50 for Cc1ccc(NC(=O)C(C)C)cc1C1CCN(Cc2ccc(Oc3ccc(F)c(F)c3)cc2)CC1 sits at 6 or higher. Criterion met

Is reported pIC50 greater than or equal to 6 here: CC(C)C(=O)Nc1cccc(C2CCN(Cc3ccc(Oc4ccc(Cl)cc4)cc3)CC2)c1 Criterion met

State whether the measured pIC50 reaches 6, counting equality as reaching it, for CC(=O)Nc1cccc(C2CCN(CCCC(=O)c3ccc(Cl)cc3)CC2)c1 Criterion met

Reported pIC50 at or above 6? Cc1ccc(C2CCN(Cc3ccc(Oc4ccc(F)c(F)c4)cc3)CC2)cc1NC(=O)C(C)C Criterion met

Does the molecule CC(=O)Nc1cccc(C2CCN(CCCC(=O)c3ccc(Oc4ccccc4)cc3)CC2)c1 have recorded pIC50 that is 6 or more? Criterion not met

Dear colleague, could you confirm whether CC(C)C(=O)Nc1cccc(C2CCN(Cc3cccc(Oc4ccc(Cl)cc4)c3)CC2)c1 has pIC50 at or above 6? Criterion not met

In plain terms: is recorded pIC50 at least 6 for CC(=O)Nc1cccc(C2CCN(CCCC(=O)c3ccccc3)CC2)c1 ? Criterion not met

Kindly determine if pIC50 recorded for CC(C)C(=O)Nc1cccc(C2CCN(Cc3cccc(Oc4cccc(C(F)(F)F)c4)c3)CC2)c1 is above or exactly 6. Criterion not met

API: above_or_equal(metric=pIC50, cutoff=6) for item CC(=O)Nc1cccc(C2CCN(CCCC(=O)c3ccc(C)cc3)CC2)c1 Criterion not met
